Exercise: for every item that follows, state its recorded pIC50.
Molecular target: UniProt:P27338
Sequence (P27338 whole entry): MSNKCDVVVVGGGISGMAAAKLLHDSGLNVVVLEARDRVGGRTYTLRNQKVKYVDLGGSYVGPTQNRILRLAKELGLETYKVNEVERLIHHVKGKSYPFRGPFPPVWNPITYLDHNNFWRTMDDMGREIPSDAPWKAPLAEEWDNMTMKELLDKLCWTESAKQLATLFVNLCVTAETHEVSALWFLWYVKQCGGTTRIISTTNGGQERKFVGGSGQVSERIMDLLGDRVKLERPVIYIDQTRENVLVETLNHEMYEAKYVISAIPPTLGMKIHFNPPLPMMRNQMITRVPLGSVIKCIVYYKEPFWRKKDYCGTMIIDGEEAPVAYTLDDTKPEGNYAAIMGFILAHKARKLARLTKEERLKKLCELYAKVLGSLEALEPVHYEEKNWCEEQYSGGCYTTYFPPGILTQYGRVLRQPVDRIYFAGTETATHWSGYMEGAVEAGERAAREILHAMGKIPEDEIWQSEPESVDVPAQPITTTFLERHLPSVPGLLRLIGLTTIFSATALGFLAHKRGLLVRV
Assay: biochemical
Description: Inhibition of recombinant human MAO-B expressed in baculovirus infected BTI cells using p-tyramine as substrate by fluorometric assay
One number for each entry, as −log10 of the molar value.

Observe how each entry below is paired with its result.
[
  {
    "compound": "CC1CCCN(CCCCCCOc2ccc3oc4ccc(Cl)cc4c(=O)c3c2)C1 (stereo not given)",
    "pIC50": 6.14
  },
  {
    "compound": "O=c1c2ccccc2oc2ccc(OCCCCCN3CCCCC3)cc12",
    "pIC50": 5.82
  },
  {
    "compound": "CC1CCCN(CCCCCOc2ccc3oc4ccc(Cl)cc4c(=O)c3c2)C1 (stereo not given)",
    "pIC50": 6.18
  },
  {
    "compound": "O=c1c2cc(Cl)ccc2oc2ccc(OCCCCCN3CCCCC3)cc12",
    "pIC50": 6.12
  }
]

Lookup: Field request: pIC50 | item: CC1CCN(CCCCCCOc2ccc3oc4ccc(Cl)cc4c(=O)c3c2)CC1
Found: 6.14
